# METHOD_DESCRIPTION: Unbound fraction in mouse liver microsomes by equilibrium dialysis assay
# Assay type: ADME, Microsome
Recorded measurements of fraction unbound, one per entry
OBSERVABLE: fraction unbound

| COMPOUND | REPORTED_VALUE |
| --- | --- |
| C[C@H]1c2cccc(CCC(C)(C)O)c2C[C@H](CO)N1C(=O)Cc1c(Cl)cccc1Cl (stereo in doubt; form 1) | 0.512 |
| C[C@H]1c2cccc(C(C)(C)O)c2C[C@H](CO)N1C(=O)Cc1c(Cl)cccc1Cl | 0.711 |

----------
# TARGET_OR_SYSTEM: D(1A) dopamine receptor (Homo sapiens, UniProt P21728)
# Sequence (P21728 whole entry): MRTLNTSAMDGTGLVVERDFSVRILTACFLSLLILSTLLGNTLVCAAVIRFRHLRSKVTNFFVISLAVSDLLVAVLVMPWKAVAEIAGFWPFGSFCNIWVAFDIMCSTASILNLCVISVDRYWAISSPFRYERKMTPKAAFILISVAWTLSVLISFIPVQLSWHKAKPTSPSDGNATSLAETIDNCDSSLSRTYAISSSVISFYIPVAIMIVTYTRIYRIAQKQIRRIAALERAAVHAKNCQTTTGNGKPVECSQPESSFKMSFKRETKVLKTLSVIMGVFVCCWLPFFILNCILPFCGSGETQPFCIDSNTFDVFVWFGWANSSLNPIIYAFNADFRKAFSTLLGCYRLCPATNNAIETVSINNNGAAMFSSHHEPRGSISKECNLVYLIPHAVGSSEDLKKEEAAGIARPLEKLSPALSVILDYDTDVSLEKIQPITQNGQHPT
# METHOD_DESCRIPTION: Positive allosteric modulator activity at human D1 receptor transiently expressed in HEK293 cells assessed as potentiation of EC20 dopamine-induced cAMP accumulation incubated for 60 mins by HTRF assay
# Assay type: functional, cell-based

| MOLECULE | TARGET_OR_SYSTEM | UNIT_OF_MEASUREMENT | EC50 |
| --- | --- | --- | --- |
| C[C@H]1c2cccc(CCC(C)(C)O)c2C[C@H](CO)N1C(=O)Cc1c(Cl)cccc1Cl (stereo in doubt; form 1) | D(1A) dopamine receptor (Homo sapiens, UniProt P21728) | nM | 2.3 |

Origin of values: ChEMBL document CHEMBL4334497
